Target: BChE (Homo sapiens)
Sequence (P06276 29-602): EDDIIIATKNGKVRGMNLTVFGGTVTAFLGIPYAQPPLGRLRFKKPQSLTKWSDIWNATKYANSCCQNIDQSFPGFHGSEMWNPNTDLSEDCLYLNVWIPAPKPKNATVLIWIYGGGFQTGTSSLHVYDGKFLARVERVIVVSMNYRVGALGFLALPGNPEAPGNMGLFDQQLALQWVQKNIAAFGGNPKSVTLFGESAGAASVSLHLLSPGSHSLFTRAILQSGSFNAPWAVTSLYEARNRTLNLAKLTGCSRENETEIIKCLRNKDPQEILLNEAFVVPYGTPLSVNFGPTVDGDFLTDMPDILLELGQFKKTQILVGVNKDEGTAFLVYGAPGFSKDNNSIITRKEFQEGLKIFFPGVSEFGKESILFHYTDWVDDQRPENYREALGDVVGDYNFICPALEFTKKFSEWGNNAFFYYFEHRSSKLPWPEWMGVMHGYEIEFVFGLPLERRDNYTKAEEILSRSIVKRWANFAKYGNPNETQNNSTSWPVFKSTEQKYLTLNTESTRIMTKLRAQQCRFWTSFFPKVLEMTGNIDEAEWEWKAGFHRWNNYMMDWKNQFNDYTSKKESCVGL
Assay: BChE inhibition, modified Ellman method
Format: biochemical
Conditions: 50 µM; mean ± S.E of three to five independent experiments; read-out: BChE % inhibition at 50 µM
reported metric: inhibition at 50 µM (%)
Report the value in % with no unit label.

Item: N#CC1=C(N)NNC(Nc2ccc(O)cc2)=C([N+](=O)[O-])C12C(=O)Nc1c(C(F)(F)F)cccc12 (stereo not shown) [Compound 5v] | inhibition at 50 µM: 13

COc1ccc(NC2=C([N+](=O)[O-])C3(C(=O)Nc4ccc(Cl)cc43)C(C#N)=C(N)NN2)cc1 (stereo not shown) [Compound 5b] has a reported inhibition at 50 µM of 36.8

Documented inhibition at 50 µM of COc1ccc(OC)c(NC2=C([N+](=O)[O-])C3(C(=O)Nc4ccc(Cl)cc43)C(C#N)=C(N)NN2)c1 (stereo not shown) [Compound 5d] : 19.2

The recorded inhibition at 50 µM for Cc1ccccc1NC1=C([N+](=O)[O-])C2(C(=O)Nc3c(Cl)cc(Cl)cc32)C(C#N)=C(N)NN1 (stereo not shown) [Compound 5m] is 41.9

Lab book: inhibition at 50 µM of COc1ccc(NC2=C([N+](=O)[O-])C3(C(=O)Nc4c(Cl)cc(Cl)cc43)C(C#N)=C(N)NN2)cc1 (stereo not shown) [Compound 5n] noted as 46.5

inhibition at 50 µM reading for Cc1ccc(NC2=C([N+](=O)[O-])C3(C(=O)Nc4ccc(Cl)cc43)C(C#N)=C(N)NN2)cc1C (stereo not shown) [Compound 5c] : 37

# compound COc1ccc(OC)c(NC2=C([N+](=O)[O-])C3(C(=O)Nc4c(Br)cc(Br)cc43)C(C#N)=C(N)NN2)c1 (stereo not shown) [Compound 5p] ; its inhibition at 50 µM = 59.3
